# procedure.summary: Volume of distribution at steady state in Wistar han rat at 2 mg/kg, po and 1 mg/kg, iv
# Format: ADME, organism-based
# cond: in vivo, read-out: Vdss
metric: Vd (L/kg)

These solved cases illustrate the format of a correct answer.
C[C@H](c1ccc(F)cc1)N1C(=O)O[C@](Cc2ccccc2)(c2nc3cc(-c4cc[nH]n4)ccc3[nH]2)C1=O    1.6
C[C@H](c1ccc(F)cc1)N1C(=O)O[C@](Cc2ccccc2)(c2nc3cc(N4CCOCC4)ccc3[nH]2)C1=O    2.3
C[C@H](c1ccc(F)cc1)N1C(=O)O[C@](Cc2ccccc2)(c2nc3cc(C(F)(F)F)ccc3[nH]2)C1=O    3.4

[1] C[C@H](c1ccc(F)cc1)N1C(=O)O[C@](Cc2ccccc2)(c2nc3c(C(F)(F)F)cccc3[nH]2)C1=O
[2] C[C@H](c1ccc(F)cc1)N1C(=O)O[C@](Cc2ccccc2)(c2nc3cc(-c4cccnc4)ccc3[nH]2)C1=O
Given the listed items, does 1 or 2 have the lesser reported Vd? Write the label of whichever entry you select.
1

====

# Test system: Rattus norvegicus
# procedure.summary: Dose normalized AUC in Wistar han rat at 2 mg/kg, po
# Assay type: ADME, organism-based
# cond: in vivo
metric: AUC/dose (µM·kg·h/mg)

[1] C[C@H](c1ccc(F)cc1)N1C(=O)O[C@](Cc2ccccc2)(c2nc3cc(C(F)(F)F)ccc3[nH]2)C1=O
[2] C[C@H](c1ccc(F)cc1)N1C(=O)O[C@](Cc2ccccc2)(c2nc3cc(N4CCOCC4)ccc3[nH]2)C1=O
Return label of the item with the larger AUC/dose. Candidates: 1 , 2 . Write the label of whichever entry you select.
1

[a] C[C@H](c1ccc(F)cc1)N1C(=O)O[C@](Cc2ccccc2)(c2nc3c(NS(C)(=O)=O)cccc3[nH]2)C1=O
[b] C[C@H](c1ccc(F)cc1)N1C(=O)O[C@](Cc2ccccc2)(c2nc3cc(-c4cc[nH]n4)ccc3[nH]2)C1=O
[c] Cc1nocc1-c1ccc2[nH]c([C@@]3(Cc4ccccc4)OC(=O)N([C@H](C)c4ccc(F)cc4)C3=O)nc2c1
Your job: order these 3 records by AUC/dose, ascending. Quick reminder: the answer is the labels in the order asked.
a, b, c

====

# procedure.summary: Metabolic stability in rat liver microsomes assessed as compound remaining at 1 uM after 0.5 hrs
# Type: ADME
# cond: read-out: Stability
metric: remaining at 0.5 h, 1 µM (%)

C[C@H](c1ccc(F)cc1)N1C(=O)O[C@](Cc2ccccc2)(c2nc3cc(N4CCOCC4)ccc3[nH]2)C1=O    92
C[C@H](c1ccc(F)cc1)N1C(=O)O[C@](Cc2ccccc2)(c2nc3c(C(F)(F)F)cccc3[nH]2)C1=O    51
C[C@H](c1ccc(F)cc1)N1C(=O)O[C@](Cc2ccccc2)(c2nc3cc(-c4cnoc4)ccc3[nH]2)C1=O    37
C[C@H](c1ccc(F)cc1)N1C(=O)O[C@](Cc2ccccc2)(c2nc3c(-c4cccnc4)cccc3[nH]2)C1=O    26
C[C@H](c1ccc(F)cc1)N1C(=O)O[C@](Cc2ccccc2)(c2nc3cc(OC(F)(F)F)ccc3[nH]2)C1=O    22

[P] CNC(=O)c1ccc2[nH]c([C@@]3(Cc4ccccc4)OC(=O)N([C@H](C)c4ccc(F)cc4)C3=O)nc2c1
[Q] C[C@H](c1ccc(F)cc1)N1C(=O)O[C@](Cc2ccccc2)(c2nc3c(-c4cc[nH]n4)cccc3[nH]2)C1=O
Return label of the item with the larger remaining at 0.5 h, 1 µM. Candidates: P , Q . Write the label of whichever entry you select.
P
(P: 46%, Q: 4%)
